Reference source: ChEMBL document CHEMBL3137667

assay-notes: Highest frequency of acute liver toxicity observed during clinical trials, expressed as a percentage. [column '% AIGUE' in source]
condition-notes: human
Here the recorded Hepatotoxicity (acute) is given for each entry.
Write it as a number; the unit % goes unstated.

The examples below pair each entry with its known result.
compound | measurement-unit | recorded-number
CN1CCN(C(c2ccccc2)c2ccccc2)CC1 | % | 0
Nc1nc(F)nc2c1ncn2[C@@H]1O[C@H](CO)[C@@H](O)[C@@H]1O | % | 0
O=C(O)CN1C(=O)c2cccc3cccc(c23)C1=O | % | 0
NS(=O)(=O)OCCCCCCCOS(N)(=O)=O | % | 0

For the compound N=C(N)NC(=O)c1nc(Cl)c(N)nc1N [AMILORIDE] , report Hepatotoxicity (acute). 0

Identify Hepatotoxicity (acute) associated with the compound COc1cc2nc(N3CCN(C(=O)C4COc5ccccc5O4)CC3)nc(N)c2cc1OC (stereo not drawn) 0

Please give measured Hepatotoxicity (acute) of the following entry: Oc1ccc(Cl)cc1Cc1cc(Cl)ccc1O 0

Indicate the recorded Hepatotoxicity (acute) value for this compound: CCc1nc(N)nc(N)c1-c1ccc(Cl)cc1.COc1ncnc(NS(=O)(=O)c2ccc(N)cc2)c1OC 23.5

###

assay-notes: Highest frequency of moderate liver toxicity observed during clinical trials, expressed as a percentage. [column '% BIOL' in source]
condition-notes: human
assay-metric: Hepatotoxicity (moderate) (%)
// note: answer is a bare numeric in %

Examples with answers:
compound | assay-metric | recorded-number
COc1cc(NC(C)CCCN)c2ncccc2c1 (stereo not given) | Hepatotoxicity (moderate) | 0
N[C@H](Cc1cc(I)c(Oc2cc(I)c(O)c(I)c2)c(I)c1)C(=O)O | Hepatotoxicity (moderate) | 40.2
CC(C(=O)O)c1ccc(CC2CCCC2=O)cc1 (stereo not given) | Hepatotoxicity (moderate) | 0
CCN1CC(CCN2CCOCC2)C(c2ccccc2)(c2ccccc2)C1=O (stereo not given) | Hepatotoxicity (moderate) | 0

Provide Hepatotoxicity (moderate) value for the following compound: CC[C@H]1OC(=O)[C@H](C)[C@@H](O[C@H]2C[C@@](C)(OC)[C@@H](O)[C@H](C)O2)[C@H](C)[C@@H](O[C@@H]2O[C@H](C)C[C@H](N(C)C)[C@H]2O)[C@](C)(O)C[C@](C)(F)C(=O)[C@H](C)[C@@H](O)[C@]1(C)O 3.6

Hello, please tell me recorded Hepatotoxicity (moderate) for this one: CCCCC(CC)COC(=O)CC(C(=O)OCC(CC)CCCC)S(=O)(=O)O (stereo not given) [DOCUSATE] 0

Specify Hepatotoxicity (moderate) for CCc1oc2ccccc2c1C(=O)c1ccc(O)cc1 and stop. 0

For the compound CN1CCN2c3ccccc3Cc3ccccc3C2C1 (stereo not given) , give its reported Hepatotoxicity (moderate). 26

Supply measured Hepatotoxicity (moderate) of CO[C@H]1O[C@@H]2O[C@@]3(C)CC[C@H]4[C@H](C)CC[C@@H]([C@H]1C)[C@@]24OO3 in your reply. 17

For C[C@H](CCC(=O)O)[C@H]1CC[C@H]2[C@@H]3[C@@H](O)C[C@@H]4C[C@H](O)CC[C@]4(C)[C@H]3CC[C@]12C , write its Hepatotoxicity (moderate). 4.2

Quick one: give measured Hepatotoxicity (moderate) for CN[C@@H]1[C@H](O[C@H]2[C@H](O[C@H]3[C@H](O)[C@@H](O)[C@H](NC(=N)N)[C@@H](O)[C@@H]3NC(=N)N)O[C@@H](C)[C@]2(O)CO)O[C@@H](CO)[C@H](O)[C@H]1O [DIHYDROSTREPTOMYCIN] 0

###

Reported Hepatotoxicity (cytolytic) values are given for each entry in this list.
condition-notes: human
No unit in the answer, please; the number alone is enough.

substance | Hepatotoxicity (cytolytic)
INTERLEUKIN 6 | 0
LOBAPLATIN | 0
CHOLESTYRAMINE | 0
MUROMONAB-CD3 | 1
STREPTOKINASE | 5
NYSTATIN | 1
DALTEPARIN SODIUM | 0
LENTINAN | 0

Please report the measured Hepatotoxicity (cytolytic) for UROKINASE 1

Give Hepatotoxicity (cytolytic) for BCG VACCINE 2

Specify measured Hepatotoxicity (cytolytic) for SPIRAMYCIN . 0

###

condition-notes: human, serum
assay-metric: Hepatotoxicity (acute)

// worked examples, Hepatotoxicity (acute) included
compound | assay-metric | result
CC(N)C12CC3CC(CC(C3)C1)C2 (stereo unspecified) [RIMANTADINE] | Hepatotoxicity (acute) | 0
CO[C@H]1[C@@H](O)[C@H](N)[C@@H](O[C@H]2O[C@H]([C@H](C)N)CC[C@H]2N)[C@H](O)[C@@H]1N(C)C(=O)CN [ASTROMICIN] | Hepatotoxicity (acute) | 0
O=c1[nH]c(=O)n([C@@H]2O[C@H](CO)[C@@H](O)[C@@H]2O)cc1/C=C/Br [SORIVUDINE] | Hepatotoxicity (acute) | 0
CC1(C)NC(=O)N(c2ccc([N+](=O)[O-])c(C(F)(F)F)c2)C1=O [NILUTAMIDE] | Hepatotoxicity (acute) | 5
CC(C)(Oc1ccc(CCNC(=O)c2ccc(Cl)cc2)cc1)C(=O)O [BEZAFIBRATE] | Hepatotoxicity (acute) | 2

Proceed to the following item.
Determine from records and report Hepatotoxicity (acute) for Nc1cc([As]2[As](c3ccc(O)c(N)c3)[As](c3ccc(O)c(N)c3)[As](c3ccc(O)c(N)c3)[As]2c2ccc(O)c(N)c2)ccc1O.Nc1cc([As]2[As](c3ccc(O)c(N)c3)[As]2c2ccc(O)c(N)c2)ccc1O (stereo unspecified) 6

###

condition-notes: human, serum
# note: exactly 1 is not below, so it is f; use t for Hepatotoxicity (acute) strictly under it

Please review the following examples before continuing.
compound | classification
Cc1ccccc1N1C(=O)c2cc(S(N)(=O)=O)c(Cl)cc2NC1C (centres undefined) | f
CC(CN(C)C)CN1c2ccccc2CCc2ccccc21 (centres undefined) | f
COCCCC/C(=N\OCCN)c1ccc(C(F)(F)F)cc1 | f
CN(CCCN1c2ccccc2CCc2ccccc21)CC(=O)c1ccc(Cl)cc1 | f
CCc1cccc2c3c([nH]c12)C(CC)(CC(=O)O)OCC3 (centres undefined) | f

Please check: Hepatotoxicity (acute) for CNC(=C[N+](=O)[O-])NCCSCc1csc(CN(C)C)n1 , strictly under 1 or not? f

# check: Hepatotoxicity (acute) < 1 for COCc1c(C(=O)OC(C)C)ncc2[nH]c3ccc(OCc4ccccc4)cc3c12 t

In the record for CC(=O)S[C@@H]1CC2=CC(=O)CC[C@]2(C)[C@H]2CC[C@@]3(C)[C@@H](CC[C@@]34CCC(=O)O4)[C@H]12 , is Hepatotoxicity (acute) less than 1? f

Hepatotoxicity (acute) strictly < 1 for this compound? CC[C@H]1OC(=O)[C@H](C)[C@@H](O[C@H]2C[C@@](C)(OC)[C@@H](O)[C@H](C)O2)[C@H](C)[C@@H](O[C@@H]2O[C@H](C)C[C@H](N(C)C)[C@H]2O)[C@](C)(O)C[C@](C)(F)C(=O)[C@H](C)[C@@H](O)[C@]1(C)O t

###

assay-notes: Times to onset, minimal and maximal, observed in the indexed observations. [column 'DELAI' in source]
condition-notes: human
Measured Hepatotoxicity (time to onset), listed per entry.

Worked cases, Hepatotoxicity (time to onset) given:
molecule | Hepatotoxicity (time to onset)
CCC1(C)CC(=O)NC1=O (stereo not given) [ETHOSUXIMIDE] | 1 month
CN1CCC(=C2c3ccccc3CCc3sccc32)CC1 | 12 days
C[C@]12C/C(=C/O)C(=O)C[C@@H]1CC[C@@H]1[C@@H]2CC[C@@]2(C)[C@H]1CC[C@]2(C)O | 11 days - 15 years
S=P(N1CC1)(N1CC1)N1CC1 | 2 weeks
CC(=O)OCC1=C(C(=O)O)N2C(=O)[C@@H](NC(=O)Cc3cccs3)[C@H]2SC1 | 1 day - 1 month
CN(C)CCCC1(c2ccc(F)cc2)OCc2cc(C#N)ccc21 (stereo not given) | 4 weeks - 2 months

Moving on to another molecule below.
Tell me measured Hepatotoxicity (time to onset) for O=NN(CCCl)C(=O)N[C@H]1C(O)O[C@H](CO)[C@@H](O)[C@@H]1O (stereo not given in full) please. 1.5 months

###

condition-notes: human
Below, each entry is listed with its recorded Hepatotoxicity (severe hepatitis).
Write the value as a bare number.

compound | Hepatotoxicity (severe hepatitis)
C#CC(O)(/C=C/Cl)CC (stereo not drawn) [ETHCHLORVYNOL] | 0
CC(Cc1ccccc1)(NC(=O)CN)c1ccccc1 (stereo not drawn) [REMACEMIDE] | 0

Now consider a different compound.
Given CCC[C@@H]1C[C@@H](C(=O)N[C@@H]([C@H]2O[C@H](SC)[C@H](O)[C@@H](O)[C@H]2O)[C@@H](C)O)N(C)C1 [LINCOMYCIN] , respond with its Hepatotoxicity (severe hepatitis). 0

###

Catalogue of Hepatotoxicity (cytolytic) readings, one per entry.
condition-notes: human
Please give only the number in your answer, with no unit.

compound | recorded-number
Cc1cc(Br)c(O)c2ncccc12 [TILBROQUINOL] | 0
C[C@@](O)(/C=C/[C@H]1CC=CC(=O)O1)[C@@H](C[C@@H](O)\C=C/C=C\C=C\CO)OP(=O)(O)O [FOSTRIECIN] | 0
C=CC(N)CCC(=O)O (stereo unspecified) [VIGABATRIN] | 2
O=C(O)c1cn(C2CC2)c2cc(N3CCNCC3)c(F)cc2c1=O [CIPROFLOXACIN] | 7

Read off the recorded Hepatotoxicity (cytolytic) for CC(=O)Nc1c(I)c(NC(C)=O)c(I)c(C(=O)O)c1I [DIATRIZOIC ACID] 0

Return Hepatotoxicity (cytolytic) (reported value) for this compound: CO[C@H]1[C@@H](O)[C@H](N)[C@@H](O[C@H]2O[C@H]([C@H](C)N)CC[C@H]2N)[C@H](O)[C@@H]1N(C)C(=O)CN [ASTROMICIN] 0

Consider the compound Nc1nc2c(ncn2COCCO)c(=O)[nH]1 [ACYCLOVIR] and give its recorded Hepatotoxicity (cytolytic). 1

Quickly give me recorded Hepatotoxicity (cytolytic) for COC(=O)C1=C(C)NC(C)=C(C(=O)O[C@H]2CCN(Cc3ccccc3)C2)[C@H]1c1cccc([N+](=O)[O-])c1 [BARNIDIPINE] 0

Note down Hepatotoxicity (cytolytic) recorded for CC(=O)NC[C@H]1CN(c2ccc(N3CCOCC3)c(F)c2)C(=O)O1 [LINEZOLID] 0

Return Hepatotoxicity (cytolytic) for the following compound: [H]/N=C(/N)N/C(=N/[H])NCCc1ccccc1 [PHENFORMIN] 0

Specify reported Hepatotoxicity (cytolytic) for the compound shown: CC(C)/N=c1\cc2n(-c3ccc(Cl)cc3)c3ccccc3nc-2cc1Nc1ccc(Cl)cc1 [CLOFAZIMINE] 0
